target or system: HIV-1 JR-CSF Env K305A (HIV-1 JR-CSF) (UniProt P20871)
protocol: cell-based or functional assay
# Fold IC50 increase relative to wild-type per record follows
// return numeric value only (unit: fold, not printed)

See these solved cases before continuing.
binder: PGT-127 (antibody, V domains shown) VH: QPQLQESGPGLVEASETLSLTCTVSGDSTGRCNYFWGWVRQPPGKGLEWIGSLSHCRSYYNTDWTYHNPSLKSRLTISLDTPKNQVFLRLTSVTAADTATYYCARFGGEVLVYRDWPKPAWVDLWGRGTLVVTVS VL: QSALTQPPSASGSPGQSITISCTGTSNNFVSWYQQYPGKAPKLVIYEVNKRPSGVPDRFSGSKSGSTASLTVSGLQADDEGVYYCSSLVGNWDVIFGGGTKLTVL
readout: Fold IC50 increase relative to wild-type
reported measurement: 2.6
//
binder: PGT-128 (antibody, V domains shown) VH: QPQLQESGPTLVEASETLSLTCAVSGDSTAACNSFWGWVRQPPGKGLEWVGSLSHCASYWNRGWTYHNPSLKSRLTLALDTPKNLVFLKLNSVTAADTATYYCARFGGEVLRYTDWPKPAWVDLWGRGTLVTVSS VL: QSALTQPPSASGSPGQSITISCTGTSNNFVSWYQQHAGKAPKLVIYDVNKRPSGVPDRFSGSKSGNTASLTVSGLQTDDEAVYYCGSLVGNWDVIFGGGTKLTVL
readout: Fold IC50 increase relative to wild-type
reported measurement: 1.8
//
binder: PGT-125 (antibody, V domains shown) VH: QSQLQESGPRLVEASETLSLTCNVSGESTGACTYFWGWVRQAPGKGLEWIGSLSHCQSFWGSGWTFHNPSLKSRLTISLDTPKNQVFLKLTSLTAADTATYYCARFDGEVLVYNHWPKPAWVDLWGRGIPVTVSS VL: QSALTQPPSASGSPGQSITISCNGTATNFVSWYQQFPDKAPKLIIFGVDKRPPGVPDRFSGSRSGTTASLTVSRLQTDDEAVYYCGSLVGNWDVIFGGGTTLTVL
readout: Fold IC50 increase relative to wild-type
reported measurement: 1.9
//
binder: PGT-130 (antibody, V domains shown) VH: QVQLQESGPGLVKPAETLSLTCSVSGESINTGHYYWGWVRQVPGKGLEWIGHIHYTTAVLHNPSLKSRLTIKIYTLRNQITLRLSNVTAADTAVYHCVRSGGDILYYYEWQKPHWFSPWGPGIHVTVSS VL: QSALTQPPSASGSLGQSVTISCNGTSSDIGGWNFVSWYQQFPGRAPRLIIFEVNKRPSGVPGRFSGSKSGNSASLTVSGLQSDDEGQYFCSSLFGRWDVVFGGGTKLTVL
readout: Fold IC50 increase relative to wild-type
reported measurement: 6.9
//
binder: PGT-123 (antibody, V domains shown) VH: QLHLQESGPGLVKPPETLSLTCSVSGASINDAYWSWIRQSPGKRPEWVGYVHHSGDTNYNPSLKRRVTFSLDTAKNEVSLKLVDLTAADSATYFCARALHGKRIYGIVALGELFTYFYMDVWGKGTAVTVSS VL: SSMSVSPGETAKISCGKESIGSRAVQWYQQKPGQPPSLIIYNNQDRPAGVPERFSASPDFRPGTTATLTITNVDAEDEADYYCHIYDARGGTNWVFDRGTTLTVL
readout: Fold IC50 increase relative to wild-type
reported measurement: 1.9

Then this binder:
Request: Entry under review: PGT-126 (antibody, V domains shown) VH: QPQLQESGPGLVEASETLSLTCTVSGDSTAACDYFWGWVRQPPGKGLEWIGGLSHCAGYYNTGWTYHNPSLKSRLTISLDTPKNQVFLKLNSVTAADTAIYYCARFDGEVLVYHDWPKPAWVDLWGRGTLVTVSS VL: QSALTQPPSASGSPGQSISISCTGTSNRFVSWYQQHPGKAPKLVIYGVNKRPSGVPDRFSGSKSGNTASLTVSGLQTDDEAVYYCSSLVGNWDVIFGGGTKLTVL . Reported Fold IC50 increase relative to wild-type?
Response: 1
